# target_or_system: histone deacetylase activity (HeLa nuclear extract)
# Construct: Histone deacetylase activity from crude nuclear extract derived from HeLa cells was used for screening
# test_summary: HDAC fluorescent activity assay (Biomol Fluor de Lys), HeLa nuclear extract
# Assay type: biochemical
# test_parameters: Fluor de Lys substrate, IC50 range
pIC50: −log10 of the molar value.
For each of the molecules below, state its pIC50.

Enquiry: Report the value of pIC50 obtained on histone deacetylase activity (HeLa nuclear extract) for `C[C@H](NCc1ccc(CNCc2ccc3cc(C(=O)NO)sc3c2)cc1)C(=O)O` .
Return: > 7.00

Enquiry: Retrieve pIC50 on histone deacetylase activity (HeLa nuclear extract); query O=C(CCCCCCC(=O)N1CCCC1C(=O)N[C@@H](Cc1ccccc1)C(=O)O)NO (stereo partly shown)
Return: < 6.00

Enquiry: Write down measured pIC50 (histone deacetylase activity (HeLa nuclear extract)) for this molecule. `CCOC(=O)[C@H](COC(C)(C)C)NCc1cccc(NC(=O)CCCCCCC(=O)NO)c1`
Return: > 7.00

Enquiry: Answer with pIC50 of CC(C)C[C@H](NCC1CCC(CNCc2ccc3cc(C(=O)NO)sc3c2)CC1)C(=O)OC1CCCC1 (stereo partly shown) measured for histone deacetylase activity (HeLa nuclear extract).
Return: 6.00 to 7.00

Reference for the values: patent US9133104B2
